meta.source: PubChem BioAssay AID1159580

Reported normalized growth is given for each of the following compounds.
# experimental_details: chemical genetic growth profiling, strain panel (AID 1159580);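 note: tested at 20 µM; growth read once vehicle control cultures reached saturation at 30 °C; 1 = growth at the plate median or of vehicle wells; lower values mean less growth of the strain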
# experimental_conditions: S. cerevisiae deletion strains, growth OD, locus YAL021C, strain ccr4, active compounds read low
The campaign covered roughly 5,500 compounds. About 2,000 (36%) were called active. Inconclusive results (about 18%) are left out. This is one part of the list. Where a SMILES comes first, the peptide text is derived from it.
Keep it simple and answer with nothing but the number.

Please review the entries below; each comes with its answer.
compound	normalized growth
COC(=O)[C@H](Cc1ccccc1)NC(=O)[C@@H](N)CC(=O)O (H-Asp-Phe-OMe)	1.01
CC(CC(C(N)=O)(c1ccccc1)c1ccccc1)N(C)C (centres undefined)	0.952

normalized growth reading for CC(C1OC(C)(C)C(O)C1O)[C@@H]1CC[C@]2(C)C3=CCC4C(C)(C)C(=O)CC[C@]4(C)C3CC[C@@]12C (some centres undefined) : 1.02

Quick note, normalized growth for COc1ccc(Cl)cc1C(=O)NCCc1ccc(S(=O)(=O)NC(=O)NC2CCCCC2)cc1 landed at 1.01

Noted for NC(=NCCC[C@H](N)C(=O)O)N[N+](=O)[O-] : its normalized growth reads 1.02

CN(C)c1ccc2nc3ccc(=[N+](C)C)cc-3sc2c1 has a reported normalized growth of 0.991

Kindly note the recorded normalized growth for Oc1cc2c(cc1O)C1c3ccc(O)c(O)c3OCC1(O)C2 (centres undefined) , which is 1

The recorded normalized growth for CC(C)c1c(O)ccc2c1CCC1[C@@](C)(CO)CCC[C@]21C (some centres undefined) is 1.01

Measured normalized growth, CCN(Cc1ccncc1)C(=O)C(CO)c1ccccc1 (centres undefined) : 1.04

Per the record, C[C@@H]1CC[C@@]2(OC1)OC1CC3C4CC=C5C[C@@H](O)CC[C@]5(C)C4CC[C@]3(C)C1[C@@H]2C (some centres undefined) has normalized growth of 1.02

Value of normalized growth reported for the compound COc1ccc(-c2oc3c(CC=C(C)C)c(O[C@@H]4O[C@H](CO)[C@@H](O)[C@H](O)[C@H]4O)cc(O)c3c(=O)c2O[C@@H]2O[C@@H](C)[C@H](O)[C@@H](O)[C@H]2O)cc1 is 1.05

Measured normalized growth of COc1cc(OC)c2c(=O)c(OC)c(-c3ccc(OC)c(OC)c3)oc2c1 : 1.01

Recorded result, CC1CC[C@@]2(OC1)O[C@H]1CC3C4CC[C@@H]5C[C@@H](O)CC[C@]5(C)C4CC[C@]3(C)[C@H]1[C@@H]2C (some centres undefined) , normalized growth: 1.05

So, CN[C@@H]1[C@@H](O)C(OC2[C@@H](N)C[C@@H](N)[C@H](O[C@H]3O[C@H](C(C)O)[C@@H](O)[C@H](O)[C@H]3N)[C@H]2O)OC[C@]1(C)O (some centres undefined) ? Its normalized growth was 0.963

For CC(=O)Oc1ccc2c(c1C(C)C)CCC1C(C)(C)CCC[C@]21C (some centres undefined) the compound record lists normalized growth as 0.996

For this compound ( C=C1CCC2(OC1)OC1CC3C4CC=C5CC(O)CC(O)C5(C)C4CCC3(C)C1C2C (centres undefined) ), measured normalized growth is 0.929

// field: normalized growth; key: CCc1cc(C(N)=S)ccn1 ; value = 1

The recorded normalized growth for entry C[C@@H]1CC[C@@]2(NC1)O[C@H]1C[C@H]3C4CC=C5C[C@@H](O)CC[C@]5(C)C4CC[C@]3(C)C1[C@@H]2C (some centres undefined) equals 0.0884

For CC(C)[N+](C)(CCC(C(N)=O)(c1ccccc1)c1ccccc1)C(C)C the compound record lists normalized growth as 0.997

Memo: C=CC1C2=CCOC(=O)C2=COC1OC1OC(CO)C(O)C(O)C1O (centres undefined) , reported normalized growth: 1.02

Briefly, normalized growth measured for COc1ccc(-c2cc(=O)c3c(O)cc(O[C@H]4O[C@H](CO[C@@H]5O[C@@H](C)[C@H](O)[C@@H](O)[C@H]5O)[C@@H](O)[C@H](O)[C@H]4O)cc3o2)cc1 : 1

Notebook: O=C1C=C2C(=CCOC2O)O1 (centres undefined) , normalized growth read as 0.679

What the record says about CC(C)c1c(O)ccc2c1CCC1[C@@](C)(C=O)CCC[C@]21C (some centres undefined) : normalized growth is 0.984
